# key: entry, value: MIC Enterococcus avium (GC 4558)
Test system: Enterococcus sp.
ASSAY DETAILS: In vitro antibacterial evaluation: minimum inhibitory concentration (MIC), broth dilution method
Assay type: cell-based
CONDITION DETAILS: broth dilution, inoculum 5×10^5 CFU/mL, 18 hours at 35° C.
Write the answer as a number in µg/mL, unit excluded.

MOLECULE | QUANTITATIVE READOUT
CC(c1ccccc1)C1NC(=O)CNC(=O)C(CO)NC(=O)C(C(O)C2CNC(=N)N2C2OC(CO)C(O)C(O)C2O)NC(=O)C(C(O)C2CNC(=N)N2)NC(=O)C(Cc2ccc(OC3OC(CO)C(OC4OC(CO)C(O)C5OC(c6ccc(-c7ccsc7)cc6)OC45)C(O)C3O)cc2)NC1=O (centres unmarked) [Example 164a] | 8

Please turn your attention to the following entry.
Request: Item under review: CC(C1CCCCC1)C1NC(=O)CNC(=O)C(CO)NC(=O)C(C(O)C2CNC(=N)N2C2OC(CO)C(O)C(O)C2O)NC(=O)C(C(O)C2CNC(=N)N2)NC(=O)C(Cc2ccc(OC3OC(CO)C(OC4OC5COC(c6ccccc6)OC5C(O)C4O)C(O)C3O)cc2)NC1=O (centres unmarked) . Reported MIC Enterococcus avium (GC 4558)?
Response: 1
